Numbers sourced from the SangsterLogP compilation.

# assay.method.text: method code SF, from Furst, W.; Becher, M. (1990). Homologues of 2-acetamido-4-nitropropoxybenzene (Falimint). I. Preparation, physicochemical and organoleptic properties. Pharmazie, 45(12)934-935.
Label scheme for logP: group A (below 2), group B (2 to below 3), group C (3 or more)

molecular.string | category.label
CCCCCCCCOc1ccc([N+](=O)[O-])cc1NC(C)=O | group C
CCCCOc1ccc([N+](=O)[O-])cc1NC(C)=O | group B
CCCCCCCCCCCCOc1ccc([N+](=O)[O-])cc1NC(C)=O | group C
CCCCCCCCCC(=O)Nc1cc([N+](=O)[O-])ccc1OCCC | group C
CCCCCCCC(=O)Nc1cc([N+](=O)[O-])ccc1OCCC | group C
COc1ccc([N+](=O)[O-])cc1NC(C)=O | group A
CCCOc1ccc([N+](=O)[O-])cc1NC(=O)CCC | group B
CCCCCC(=O)Nc1cc([N+](=O)[O-])ccc1OCCC | group B
CCCCCOc1ccc([N+](=O)[O-])cc1NC(C)=O | group B
CCCOc1ccc([N+](=O)[O-])cc1NC(=O)CC | group A
CCOc1ccc([N+](=O)[O-])cc1NC(=O)CC | group A
CCCCCCCCCCCC(=O)Nc1cc([N+](=O)[O-])ccc1OCCC | group C
CCCOc1ccc([N+](=O)[O-])cc1NC(C)=O | group A
